- target-desc: the molecule itself
- protocol-text: native gel or EMSA; 8% native gel of the purified proteins, to analyse their oligomerization statuses
readout-name: binding result

KaiA-3-1 (natural protein, Synechococcus elongatus PCC 7942, KaiA, Synechococcus elongatus PCC 7942, with the mutations of Cluster III; The oligomer state is said to be the same as that of the wild type; also called KaiA mutant of Cluster III) MLSQIAICIWVESTAILQDCQRALSADRYQLQVCESGEMLLEYAQTHRDQIDCLILVAANPSFRAVVQQLCFEGVVVPAIVVGDRDSEDPDEPAKEQLYHSAELHLGIHQLEQLPYQVDAALAEFLRLAPVETMADHIMLMGANHDPELSSQQRDLAQRLQERLGYLGVYYKRDPDRFLRNLPAYESQKLHQAMQTSYREIVLSYFSPNSNLNQSIDNFVNMAFFADVPVTKVVEIHMELMDEFAKKLRVEGHKEDFLLDYRLTLIDVIAHLCEMYRRSIPRET ... binds
wild-type KaiA of Synechococcus elongatus PCC 7942 (natural protein, KaiA, Synechococcus elongatus PCC 7942; expressed from pGEX-6P-1; Plasmid provided by Dr. Carl Johnson; also called the wild-type KaiA) MLSQIAICIWVESTAILQDCQRALSADRYQLQVCESGEMLLEYAQTHRDQIDCLILVAANPSFRAVVQQLCFEGVVVPAIVVGDRDSEDPDEPAKEQLYHSAELHLGIHQLEQLPYQVDAALAEFLRLAPVETMADHIMLMGANHDPELSSQQRDLAQRLQERLGYLGVYYKRDPDRFLRNLPAYESQKLHQAMQTSYREIVLSYFSPNSNLNQSIDNFVNMAFFADVPVTKVVEIHMELMDEFAKKLRVEGRSEDILLDYRLTLIDVIAHLCEMYRRSIPRET ... binds
KaiA-1-1 (natural protein, Synechococcus elongatus PCC 7942, KaiA, Synechococcus elongatus PCC 7942, with the mutations of Cluster I; R249 belongs to the cluster but was not mutated; The oligomer state is said to be the same as that of the wild type; also called KaiA mutant of Cluster I) MLSQIAICIWVESTAILQDCQRALSADRYQLQVCESGEMLLEYAQTHRDQIDCLILVAANPSFRAVVQQLCFEGVVVPAIVVGDRDSEDPDEPAKEQLYHSAELHLGIHQLEQLPYQVDAALAEFLRLAPVETMADHIMLMGANHDPELSSQQRDLAQRLQERLGYLGVYYKRDPDRFLRNLPAYESQKLHQAMQTSYREIVLSYFSPNSNLNQSIDNFVNMAFFADVPVTKVVEIHMNLMDEFWKKLRVEGRSEDILLDYRLTLIDVIAHLCEMYRRSIPRET ... binds

Where these numbers come from: paper PMC4844972
